Provide the recorded GI50 for the entries that follow.
System: SF-539
TEST DETAILS: Cytotoxicity against human SF539 cells
Format: functional
Give bare numbers, in µM.

Consider the worked cases shown below.
O=C1c2cc(-c3ccccc3)ccc2-c2c1c1ccc([N+](=O)[O-])cc1c(=O)n2CCCBr : 16.6
CSc1ccc2c(c1)C(=O)c1c-2n(CCCN=[N+]=[N-])c(=O)c2cc([N+](=O)[O-])ccc12 : 0.891
O=C1c2cc(Cl)ccc2-c2c1c1ccc([N+](=O)[O-])cc1c(=O)n2CCCBr : 3.72
COc1cc2c3c(n(CCCN)c(=O)c2cc1OC)-c1ccc(F)cc1C3=O : 1.12
COc1cc2c3c(n(CCCBr)c(=O)c2cc1OC)-c1ccc(NC(C)=O)cc1C3=O : 3.8

Consider the following items and state reported GI50 for each.
1. NCCCn1c2c(c3ccc([N+](=O)[O-])cc3c1=O)C(=O)c1cc(Br)ccc1-2
2. COc1cc2c3c(n(CCCCl)c(=O)c2cc1OC)-c1ccc(C#N)cc1C3=O
3. NCCCn1c2c(c3ccc([N+](=O)[O-])cc3c1=O)C(=O)c1cc(F)ccc1-2
4. NCCCn1c2c(c3ccc([N+](=O)[O-])cc3c1=O)C(=O)c1cc(I)ccc1-2

1. 0.011
2. 7.24
3. 0.028
4. 0.044

All figures here come from ChEMBL document CHEMBL1148751.
